Data origin: PubChem BioAssay (NCI)

- Tested on: SK-MEL-5 melanoma
- experiment: NCI-60 one-dose screen, 48 h (100 = growth as untreated, 0 = no growth, -100 = all killed)
- conditionDescription: 10 µM unless noted
- Description: Growth inhibition of the SK-MEL-5 human tumor cell line is measured as a screen for anti-cancer activity. Cells are grown in 96 well plates and exposed to the test compound for 48 hours. Compounds are tested at a single concentration, which is 10^-5 M for most compounds. The reported endpoint is percent growth (GI% or GIPRCNT), where numbers from 0 - 100% represent growth inhibition, and numbers from -100% - 0 represent cell death. For example, a value of 40 represents 60% growth inhibition. […]
About 83,000 compounds went through this panel and 20% of them were active in at least one assay; those are over-represented in the sample as a whole.
Please respond with reported growth for every item in the list.
Give bare numbers, in %.

>  <compound>
COC(=O)c1ccc(NC(=O)CSc2nc(-c3ccc(F)cc3)nc3ccccc23)cc1

>  <endpointValue>
74.3

$$$$
>  <compound>
Cc1cccc(C)c1NC(=O)CN(CC(C)C)CC(O)COc1ccccc1 (stereo not given)

>  <endpointValue>
95.5

$$$$
>  <compound>
CC(=O)ON1CCCC(P(=O)(OCOC(=O)C(C)(C)C)OCOC(=O)C(C)(C)C)C1=O (stereo not given)

>  <endpointValue>
-55.7

$$$$
>  <compound>
NC(=O)c1ccc(C2C3=C(CCCC3=O)OC3=C2C(=O)c2ccccc2C3=O)cc1 (stereo not given)

>  <endpointValue>
-93.9

$$$$
>  <compound>
Cc1nc2sc(C(=O)Nc3cccc(Cl)c3C)c(N)c2cc1C(C)O (stereo not given)

>  <endpointValue>
9.62

$$$$
>  <compound>
Cc1nccc2c3ccc(OCc4cn(-c5ccc(Cl)cc5)nn4)cc3n(CC(C)C)c12

>  <endpointValue>
-78.3

$$$$

Hello, I would appreciate it if you could give growth for each entry below.
1. O=c1c2ccccc2oc2ccc(OCCCCCCN3CCCCCC3)cc12
2. C[C@]12CC[C@@H]3c4ccc(O)cc4CC[C@H]3[C@@H]1C[C@H](O)C2
3. COc1ccc(-c2cc(C(=O)N3N=C(c4ccc(N)cc4)CC3c3ccc(OC)cc3)c3cc(OC)ccc3n2)cc1 (stereo not given)
4. COc1cc(-c2nn(-c3ccc(Br)cc3)cc2CO)ccc1O

1: -36.7; 2: 64.9; 3: 67.3; 4: 94.1

---

- Test system: LOX IMVI melanoma
- experiment: NCI-60 one-dose screen, 48 h (100 = growth as untreated, 0 = no growth, -100 = all killed)
- conditionDescription: 10 µM unless noted
Compounds without any hit were thinned out: in the full panel of roughly 83,000, 20% have a hit.
endpoint: growth (%)
One number for each entry, in %.

These recorded examples may help you get a feel for the data.
>  <compound>
CCCCc1n(Cc2ccc3ccccc3c2)c2ccccc2[n+]1Cc1ccc2ccccc2c1

>  <endpointValue>
-93.5

$$$$
>  <compound>
COc1cc2c(cc1OC)C(Sc1ccc(Cl)cc1)c1c(nc(N)c(C#N)c1N)O2 (stereo not given)

>  <endpointValue>
-88.9

$$$$
>  <compound>
CCN1CCC[C@H]1c1cc(O)c2c(c1OC)C[C@H]1C[C@H]3[C@H](N)C(=O)C(C(N)=O)=C(O)[C@@]3(O)C(=O)C1=C2O

>  <endpointValue>
-45.2

$$$$

Hello, I would appreciate it if you could give growth for each entry below.
1. COc1ccc(/C=C/C(=O)/C=C(/C=C/c2ccc(OC)c(OC)c2)OB(F)F)cc1OC
2. Cc1ccc(C(=O)/C(=C/c2ccc([N+](=O)[O-])cc2)S(=O)Cc2ccccc2)cc1 (stereo not given)
3. CCn1cc(C(=O)O)c(=O)c2cc(F)c(N3CCN(CC(=O)Nc4ccc(/C(C)=N/OC)cc4)CC3)cc21
4. COc1cc(C(=O)Nc2cc(OC)c3ccn(C)c3c2)cc2c1C[C@]1(C)CC[C@@H](O)C(C)(C)[C@H]1O2
5. COc1c(O)cc2oc3cc(O[C@@H]4OC(C)[C@@H](O)[C@H](O)C4O)c(CC=C(C)C)c(O)c3c(=O)c2c1CC=C(C)C (stereo not given in full)
6. OCCNc1nc(NCCO)nc(Nc2ccc(C3=NN(c4ccc(Cl)cc4)C(c4ccc(Cl)cc4)C3)cc2)n1 (stereo not given)

1. 5.12
2. -82.1
3. 80
4. -14.6
5. 89.3
6. 28.2

Hi! What's the reported growth for CC1CCN(CCCCCOc2ccc3oc4ccccc4c(=O)c3c2)CC1 on LOX IMVI melanoma? 53.3
